Consider the following binders and their measured Kd readings.
Target: mouse Wnt3a (mouse, UniProt P27467 19-352)
Sequence (P27467 19-352): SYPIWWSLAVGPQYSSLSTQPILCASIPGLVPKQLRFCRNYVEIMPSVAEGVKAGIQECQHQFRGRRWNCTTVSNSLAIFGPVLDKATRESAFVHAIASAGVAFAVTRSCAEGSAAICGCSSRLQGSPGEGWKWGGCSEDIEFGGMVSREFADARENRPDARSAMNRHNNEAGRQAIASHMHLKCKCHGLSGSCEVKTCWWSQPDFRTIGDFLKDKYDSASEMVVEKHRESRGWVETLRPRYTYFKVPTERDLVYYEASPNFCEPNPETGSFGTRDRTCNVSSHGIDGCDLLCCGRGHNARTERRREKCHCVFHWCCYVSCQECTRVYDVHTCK
Assay: SPR
// return numeric value only (unit: nM, not printed)

Sample answers from the record:
>>> measvalue("WIF-1ΔC (human WIF-1 residues 35-346) (domain or fragment, UniProt Q9Y5W5 35-346, looked up) SLYLWIDAHQARVLIGFEEDILIVSEGKMAPFTHDFRKAQQRMPAIPVNIHSMNFTWQAAGQAEYFYEFLSLRSLDKGIMADPTVNVPLLGTVPHKASVVQVGFPCLGKQDGVAAFEVDVIVMNSEGNTILKTPQNAIFFKTCQQAECPGGCRNGGFCNERRICECPDGFHGPHCEKALCTPRCMNGGLCVTPGFCICPPGFYGVNCDKANCSTTCFNGGTCFYPGKCICPPGLEGEQCEISKCPQPCRNGGKCIGKSKCKCSKGYQGDLCSKPVCEPGCGAHGTCHEPNKCQCQEGWHGRHCNKRYEASLI")
21.6
>>> measvalue("WIF-1_(WD-EGF-I) Met77Trp (domain or fragment, human, UniProt Q9Y5W5 35-210, looked up) SLYLWIDAHQARVLIGFEEDILIVSEGKMAPFTHDFRKAQQRWPAIPVNIHSMNFTWQAAGQAEYFYEFLSLRSLDKGIMADPTVNVPLLGTVPHKASVVQVGFPCLGKQDGVAAFEVDVIVMNSEGNTILKTPQNAIFFKTCQQAECPGGCRNGGFCNERRICECPDGFHGPHCE")
2860
>>> measvalue("WIF-1_(WD-EGF-I) (human WIF-1 residues 35-210) (domain or fragment, UniProt Q9Y5W5 35-210, looked up) SLYLWIDAHQARVLIGFEEDILIVSEGKMAPFTHDFRKAQQRMPAIPVNIHSMNFTWQAAGQAEYFYEFLSLRSLDKGIMADPTVNVPLLGTVPHKASVVQVGFPCLGKQDGVAAFEVDVIVMNSEGNTILKTPQNAIFFKTCQQAECPGGCRNGGFCNERRICECPDGFHGPHCE")
5600

Provide one value: measured Kd of WIF-1ΔC Met77Trp (domain or fragment, human, UniProt Q9Y5W5 35-346, looked up) SLYLWIDAHQARVLIGFEEDILIVSEGKMAPFTHDFRKAQQRWPAIPVNIHSMNFTWQAAGQAEYFYEFLSLRSLDKGIMADPTVNVPLLGTVPHKASVVQVGFPCLGKQDGVAAFEVDVIVMNSEGNTILKTPQNAIFFKTCQQAECPGGCRNGGFCNERRICECPDGFHGPHCEKALCTPRCMNGGLCVTPGFCICPPGFYGVNCDKANCSTTCFNGGTCFYPGKCICPPGLEGEQCEISKCPQPCRNGGKCIGKSKCKCSKGYQGDLCSKPVCEPGCGAHGTCHEPNKCQCQEGWHGRHCNKRYEASLI
217
